# System: LNCaP-Vancouver prostate cells
# assay-explanation: In vitro LNCaP Vancouver prostate cell proliferation assay in lipid reduced medium
# Type: cell-based
# assay-conditions: read-out: pIC50 LNCaP_Vancouver prostate cell (converted)
measurement-name: IC50 (nM)

{"columns": ["molecule", "measurement-name", "unit-of-measure", "observed-value"],
 "data": [
  ["Cc1cc(-c2ccc3c(cnn3C)c2)ccc1C1=NC2(CC2)C(=O)N1CC1CN(C(=O)C2CC2)C1 [compound 292]", "IC50", "nM", 692],
  ["Cn1ncc2cc(-c3ccc(C4=NC5(CC5)C(=O)N4CC4CN(C(=O)C5(C)CC5)C4)c(F)c3)ccc21 [compound 357]", "IC50", "nM", 372],
  ["Cc1sc2ccc(-c3ccc(C4=NC5(CC5)C(=O)N4C[C@@H]4CCN(C(=O)C5CC5)C4)cc3F)cc2c1C [compound 406]", "IC50", "nM", 7080],
  ["Cn1cnc2cc(-c3ccc(C4=NC5(CC5)C(=O)N4CC4CN(C(=O)C5(C)CC5)C4)c(F)c3)ccc21 [compound 378]", "IC50", "nM", 74.1],
  ["Cn1ncc2cc(-c3ccc(C4=NC5(CC5)C(=O)N4CC4CN(C(=O)C5CC5)C4)c(Cl)c3)ccc21 [compound 584]", "IC50", "nM", 646],
  ["O=C(C1CC1)N1CC(CN2C(=O)C3(CC3)N=C2c2ccc(-c3ccc4cncnc4c3)cc2)C1 [compound 543]", "IC50", "nM", 2000],
  ["Cn1nc(Cl)c2cc(-c3ccc(C4=NC5(CC5)C(=O)N4CC4CN(C(=O)C5CC5)C4)c(F)c3)ccc21 [compound 607]", "IC50", "nM", 1100]
]}

* * *

# assay-target: hFASN enzyme (full length) (Homo sapiens, UniProt P49327)
# Construct: 10 μL hFASN enzyme (full length, 300 ng, purified in house); made in house
# Sequence (P49327 whole entry): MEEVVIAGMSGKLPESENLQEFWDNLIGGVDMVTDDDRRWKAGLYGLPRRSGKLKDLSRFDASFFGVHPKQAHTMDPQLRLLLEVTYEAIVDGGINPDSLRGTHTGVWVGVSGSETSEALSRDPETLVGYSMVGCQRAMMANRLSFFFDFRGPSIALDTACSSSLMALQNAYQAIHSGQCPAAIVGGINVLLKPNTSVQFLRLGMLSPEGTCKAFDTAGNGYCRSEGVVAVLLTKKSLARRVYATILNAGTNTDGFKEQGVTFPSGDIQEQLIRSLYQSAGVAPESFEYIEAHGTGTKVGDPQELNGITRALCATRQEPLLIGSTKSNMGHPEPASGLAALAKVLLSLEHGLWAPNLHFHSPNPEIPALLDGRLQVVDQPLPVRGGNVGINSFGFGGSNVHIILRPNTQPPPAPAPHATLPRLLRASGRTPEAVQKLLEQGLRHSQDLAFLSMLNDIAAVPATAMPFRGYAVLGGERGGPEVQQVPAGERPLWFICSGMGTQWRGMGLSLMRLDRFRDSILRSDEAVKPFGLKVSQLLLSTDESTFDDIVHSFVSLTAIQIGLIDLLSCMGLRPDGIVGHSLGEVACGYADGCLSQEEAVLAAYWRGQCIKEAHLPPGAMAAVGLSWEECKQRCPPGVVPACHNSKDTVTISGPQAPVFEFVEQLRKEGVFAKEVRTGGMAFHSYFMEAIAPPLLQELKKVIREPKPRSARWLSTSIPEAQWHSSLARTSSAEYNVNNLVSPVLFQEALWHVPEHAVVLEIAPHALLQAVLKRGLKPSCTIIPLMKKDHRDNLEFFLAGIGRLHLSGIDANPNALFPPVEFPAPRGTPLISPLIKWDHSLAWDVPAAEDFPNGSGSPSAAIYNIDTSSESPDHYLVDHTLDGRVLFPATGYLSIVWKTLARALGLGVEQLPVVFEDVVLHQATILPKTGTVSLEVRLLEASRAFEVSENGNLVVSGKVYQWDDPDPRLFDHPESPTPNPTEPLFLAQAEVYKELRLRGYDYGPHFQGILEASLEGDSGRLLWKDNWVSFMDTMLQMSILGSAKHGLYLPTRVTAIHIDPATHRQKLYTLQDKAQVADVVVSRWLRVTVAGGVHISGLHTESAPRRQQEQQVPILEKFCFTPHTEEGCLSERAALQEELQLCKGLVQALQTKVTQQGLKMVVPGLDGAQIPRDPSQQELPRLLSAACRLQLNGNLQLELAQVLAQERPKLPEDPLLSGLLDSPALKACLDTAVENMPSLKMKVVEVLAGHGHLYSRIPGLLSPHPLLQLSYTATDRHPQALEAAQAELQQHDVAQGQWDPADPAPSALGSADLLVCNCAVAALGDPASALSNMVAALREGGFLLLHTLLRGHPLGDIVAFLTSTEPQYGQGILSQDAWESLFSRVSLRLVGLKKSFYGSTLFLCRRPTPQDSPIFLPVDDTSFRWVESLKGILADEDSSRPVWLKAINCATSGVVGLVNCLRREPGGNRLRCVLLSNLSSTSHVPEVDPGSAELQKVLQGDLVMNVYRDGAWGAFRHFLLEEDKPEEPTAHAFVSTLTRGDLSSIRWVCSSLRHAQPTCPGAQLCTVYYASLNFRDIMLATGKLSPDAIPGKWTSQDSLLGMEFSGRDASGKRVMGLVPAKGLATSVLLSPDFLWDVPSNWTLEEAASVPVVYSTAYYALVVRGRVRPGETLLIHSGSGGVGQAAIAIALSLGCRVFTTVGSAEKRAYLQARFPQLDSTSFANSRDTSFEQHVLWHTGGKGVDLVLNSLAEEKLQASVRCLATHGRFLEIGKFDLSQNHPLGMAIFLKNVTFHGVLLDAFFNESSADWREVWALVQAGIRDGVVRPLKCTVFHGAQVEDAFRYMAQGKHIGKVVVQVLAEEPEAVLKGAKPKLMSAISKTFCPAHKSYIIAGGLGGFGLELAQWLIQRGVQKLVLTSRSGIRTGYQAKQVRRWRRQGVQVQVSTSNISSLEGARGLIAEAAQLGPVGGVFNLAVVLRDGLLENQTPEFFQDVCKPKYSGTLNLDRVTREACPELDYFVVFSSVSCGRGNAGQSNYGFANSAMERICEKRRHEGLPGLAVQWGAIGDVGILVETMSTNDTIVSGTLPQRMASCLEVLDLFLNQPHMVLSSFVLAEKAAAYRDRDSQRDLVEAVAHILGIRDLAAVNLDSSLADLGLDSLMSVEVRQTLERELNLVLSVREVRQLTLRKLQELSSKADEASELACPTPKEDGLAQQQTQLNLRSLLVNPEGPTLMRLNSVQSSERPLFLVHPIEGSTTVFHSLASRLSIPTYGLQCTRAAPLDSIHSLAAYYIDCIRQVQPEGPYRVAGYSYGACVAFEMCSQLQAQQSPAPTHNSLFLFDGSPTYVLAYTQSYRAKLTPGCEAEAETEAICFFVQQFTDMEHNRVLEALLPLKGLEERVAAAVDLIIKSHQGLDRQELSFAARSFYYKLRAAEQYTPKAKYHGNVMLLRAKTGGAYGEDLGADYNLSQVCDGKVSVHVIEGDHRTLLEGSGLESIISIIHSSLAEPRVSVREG
# assay-explanation: Fatty Acid Synthase (FASN) inhibition scintillation proximity assay
# Format: biochemical
# assay-conditions: read-out: Human FASN pIC50 (converted)
Reported log10 IC50 by item:
measurement-name: log10 IC50 (log10 of the value in nM)

{"columns": ["compound", "log10 IC50"],
 "data": [
  ["Cc1cc(-c2cccc(S(=O)(=O)C3CC3)c2)ccc1C1=NC2(CC2)C(=O)N1C[C@@H]1CCN(C(=O)C2CC2)C1", 3.07],
  ["O=C([C@H]1CCCO1)N1CC(CN2C(=O)C3(CCOC3)N=C2c2ccc(-c3ccc4occc4c3)cc2)C1 (stereo partly shown)", 2.89],
  ["Cn1cc(-c2ccc(-c3ccc(C4=NC5(CCOCC5)C(=O)N4C[C@@H]4CCN(C(=O)[C@H]5CCCO5)C4)cc3)cc2)cn1", 2.49],
  ["Cc1cc(C)c2ccc(-c3ccc(C4=NC5(CC5)C(=O)N4CC4CN(C(=O)C5CC5)C4)cc3)cc2n1", 3.62],
  ["O=C(C1CC1)N1CC(CN2C(=O)C3(CC3)N=C2c2ccc(-c3nc4ccc(F)cc4s3)cc2F)C1", 1.75],
  ["CC(O)C(=O)N1CC[C@@H](CN2C(=O)C3(CCOCC3)N=C2c2ccc(-c3ccc(-c4cnn(C)c4)cc3)cc2)C1 (stereo partly shown)", 3.30]
]}

* * *

# assay-target: hFASN enzyme (full length) (Homo sapiens, UniProt P49327)
# Construct: 10 μL hFASN enzyme (full length, 300 ng, purified in house); made in house
# assay-explanation: Fatty Acid Synthase (FASN) inhibition scintillation proximity assay
# Type: biochemical
# assay-conditions: read-out: Human FASN % inhibition @ 10 μM, 10 μM test compound
Readings of inhibition at 10 µM for the listed molecules
measurement-name: inhibition at 10 µM

{"columns": ["molecule", "assay-target", "observed-value"],
 "data": [
  ["O=C(C1CC1)N1CC[C@@H](CN2C(=O)C3(CC3)N=C2c2ccc(-c3cncc(Cl)c3)cc2)C1", "hFASN enzyme (full length) (Homo sapiens, UniProt P49327)", "24%"],
  ["O=C(c1nccs1)N1CC[C@@H](CN2C(=O)C3(CCOC3)N=C2c2ccc(-c3ccc4cccnc4c3)cc2)C1 (stereo partly shown)", "hFASN enzyme (full length) (Homo sapiens, UniProt P49327)", "35%"],
  ["O=C(C1CC1)N1CC[C@@H](CN2C(=O)C3(CC3)N=C2c2ccc(-c3cccc(O)c3)cc2)C1", "hFASN enzyme (full length) (Homo sapiens, UniProt P49327)", "113%"],
  ["Cn1nc(C#N)c2ccc(-c3ccc(C4=NC5(CC5)C(=O)N4C[C@@H]4CCN(C(=O)C5CC5)C4)cc3)cc21", "hFASN enzyme (full length) (Homo sapiens, UniProt P49327)", "98%"]
]}

* * *

# Tested on: LNCaP-Vancouver prostate cells
# assay-explanation: In vitro LNCaP Vancouver prostate cell proliferation assay in lipid reduced medium
# Format: cell-based
# assay-conditions: read-out: pIC50 LNCaP_Vancouver prostate cell (converted)
Here, each record is paired with measured log10(IC50) data.
measurement-name: log10(IC50) (log10 of the value in µM)

{"columns": ["molecule", "log10(IC50)"],
 "data": [
  ["Cc1cc(-c2ccc3c(cnn3C)c2)ccc1C1=NC2(CC2)C(=O)N1CC1CN(C(=O)C2CCCO2)C1 (stereo not shown) [compound 205]", -0.99],
  ["N#Cc1ccc2sc(-c3ccc(C4=NC5(CC5)C(=O)N4CC4CN(C(=O)C5CC5)C4)c(F)c3)nc2c1", 0.08],
  ["Cn1ncc2cc(-c3ccc(C4=NC5(CC5)C(=O)N4C[C@@H]4CCN(C(=O)C5CC5)C4)nc3)ccc21", 0.48],
  ["Cc1cc(-c2ccc(-c3ccn(CC4CC4)n3)cc2)ccc1C1=NC2(CC2)C(=O)N1CC1CN(C(=O)C2(C)CC2)C1", 0.01],
  ["O=C(C1CC1)N1CC[C@@H](CN2C(=O)C3(CC3)N=C2c2ccc(-c3ccc4c(Cl)nccc4c3)cc2)C1", -0.03],
  ["Cc1ccc2nc(-c3ccc(C4=NC5(CC5)C(=O)N4CC4CN(C(=O)C5CC5)C4)c(F)c3)sc2c1", -0.71]
]}

* * *

# assay-target: hFASN enzyme (full length) (Homo sapiens)
# Construct: 10 μL hFASN enzyme (full length, 300 ng, purified in house); made in house
# assay-explanation: Fatty Acid Synthase (FASN) inhibition scintillation proximity assay
# Assay type: biochemical
# assay-conditions: read-out: Human FASN % inhibition @ 10 μM, 10 μM test compound
Below is a list of entries, each paired with its recorded inhibition at 10 µM value.
measurement-name: inhibition at 10 µM (%)

{"columns": ["structure", "measurement-name", "unit-of-measure", "observed-value"],
 "data": [
  ["Cn1ncc2cc(-c3ccc(C4=NC5(CC5)C(=O)N4C[C@@H]4CCN(C(=O)C5(O)CC5)C4)c(F)c3)ccc21", "inhibition at 10 µM", "%", 100],
  ["Cn1ccc2cc(-c3ccc(C4=NC5(CC5)C(=O)N4C[C@@H]4CCN(C(=O)C5CC5)C4)cc3)ccc21", "inhibition at 10 µM", "%", 102],
  ["O=C(C1CC1)N1CC(CN2C(=O)C3(CC3)N=C2c2ccc(-c3ccc4nn(CCO)cc4c3)cc2F)C1", "inhibition at 10 µM", "%", 88],
  ["Cc1cc(C2=NC3(CC3)C(=O)N2CC2CN(C(=O)C3CC3)C2)ccc1-c1ccc2[nH]ncc2c1", "inhibition at 10 µM", "%", 50]
]}

* * *

# assay-target: hFASN enzyme (full length) (Homo sapiens)
# Construct: 10 μL hFASN enzyme (full length, 300 ng, purified in house); made in house
# assay-explanation: Fatty Acid Synthase (FASN) inhibition scintillation proximity assay
# Assay type: biochemical
# assay-conditions: read-out: Human FASN % inhibition @ 10 μM, 10 μM test compound
Readings of inhibition at 10 µM for the listed compounds
measurement-name: inhibition at 10 µM (%)

{"columns": ["structure", "assay-target", "unit-of-measure", "observed-value"],
 "data": [
  ["COC(=O)N1CC[C@@H](CN2C(=O)C3(CN(C(=O)OC)C3)N=C2c2ccc(-c3ccc4c(cnn4C)c3)cc2)C1", "hFASN enzyme (full length) (Homo sapiens)", "%", 20],
  ["C=CC(=O)N1CC[C@@H](CN2C(=O)C3(CCN(Cc4ccccc4)CC3)N=C2c2ccc(-c3ccc4occc4c3)cc2)C1", "hFASN enzyme (full length) (Homo sapiens)", "%", 101],
  ["O=C(C1CC1)N1CC[C@@H](CN2C(=O)C3(CC3)N=C2c2ccc(-c3ccc4cc[nH]c4c3)cn2)C1", "hFASN enzyme (full length) (Homo sapiens)", "%", 101],
  ["N#CC1(C(=O)N2CC[C@@H](CN3C(=O)C4(CCCC4)N=C3c3ccc(-c4ccc5occc5c4)cc3)C2)CC1", "hFASN enzyme (full length) (Homo sapiens)", "%", 94.3]
]}
